# TARGET ENTITY: T1, natriuretic peptide receptor-B (human)
# T1 chain: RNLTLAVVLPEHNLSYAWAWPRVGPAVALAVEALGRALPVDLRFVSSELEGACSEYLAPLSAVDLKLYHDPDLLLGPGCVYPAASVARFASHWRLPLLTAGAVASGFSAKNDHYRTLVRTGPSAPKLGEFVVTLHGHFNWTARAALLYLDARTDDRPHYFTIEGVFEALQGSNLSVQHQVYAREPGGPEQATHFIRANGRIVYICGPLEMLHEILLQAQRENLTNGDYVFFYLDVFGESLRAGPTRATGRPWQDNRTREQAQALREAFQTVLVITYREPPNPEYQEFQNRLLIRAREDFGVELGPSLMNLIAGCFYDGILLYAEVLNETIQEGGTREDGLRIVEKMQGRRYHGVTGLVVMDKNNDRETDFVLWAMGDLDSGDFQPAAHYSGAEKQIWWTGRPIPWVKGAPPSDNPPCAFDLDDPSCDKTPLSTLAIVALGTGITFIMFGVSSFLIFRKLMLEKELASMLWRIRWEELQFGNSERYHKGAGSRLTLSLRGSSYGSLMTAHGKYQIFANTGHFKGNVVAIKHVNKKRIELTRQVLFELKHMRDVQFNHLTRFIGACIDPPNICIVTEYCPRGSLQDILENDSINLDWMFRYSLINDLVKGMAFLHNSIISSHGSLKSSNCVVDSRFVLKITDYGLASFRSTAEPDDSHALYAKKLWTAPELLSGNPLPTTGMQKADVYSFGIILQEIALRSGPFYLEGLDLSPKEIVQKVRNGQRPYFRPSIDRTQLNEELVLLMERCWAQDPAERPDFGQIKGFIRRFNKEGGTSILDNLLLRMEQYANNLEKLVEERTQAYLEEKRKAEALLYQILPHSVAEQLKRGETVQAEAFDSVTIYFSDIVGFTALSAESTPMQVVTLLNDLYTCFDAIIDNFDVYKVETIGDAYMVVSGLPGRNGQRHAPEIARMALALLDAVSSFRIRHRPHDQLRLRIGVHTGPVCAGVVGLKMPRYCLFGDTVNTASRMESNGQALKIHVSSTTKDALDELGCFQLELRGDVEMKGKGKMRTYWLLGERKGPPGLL
# ASSAY REMARKS: cell-based or functional assay
Numbered stars: 1 amine (or outer) side, 2 acyl side, 3 side chain; on linkers, the order of the positions; unused ones are H or OH. Square brackets hold non-standard residues; d marks the D form. Ends that are not written are not given here. * marks the point of attachment. 2857‑Ac = 2-((2S,3R,4R,5R)-2,3,4,5,6-pentahydroxyhexylamino)acetic acid, O=C(CN(C[C@H](O)[C@@H](O)[C@H](O)[C@H](O)CO)[*:1])[*:2]; Sni = (S)-nipecotic acid, O=C([C@H]1CCCN([*:1])C1)[*:2]; Phe(3-CF3) = N[C@@H](Cc1cccc(C(F)(F)F)c1)C(=O)O; Egg = 2-Amino-3-piperidin-4-yl-propionic acid; Pro(trans-4-F) = O=C(O)[C@@H]1C[C@@H](F)CN1; Hyp = O=C(O)[C@@H]1C[C@@H](O)CN1; pS = N[C@@H](COP(=O)(O)O)C(=O)O; AR‑314‑145 = not defined here; Aoc(2) = CCCCCC[C@H](N)C(=O)O; NMeL = CN[C@@H](CC(C)C)C(=O)O; Chg = N[C@H](C(=O)O)C1CCCCC1; BB785 = not defined here; Octanoyl = CCCCCCCC(=O)*; 1270 = not defined here; Api = NC1(C(=O)O)CCNCC1; Che = not defined here; Hexanoyl = CCCCCC(=O)*; leu = not defined here; nle = not defined here; Ac3c = NC1(C(=O)O)CC1; Occ = octanoic acid
MEASURE: EC50 group, cGMP in GTM-3 cells

BINDER	EC50 group, cGMP in GTM-3 cells
1270-[Aoc(2)][Sni]FLL[Hyp][NMeL]DRI-NH2 (not fully specified (some residues); printed as (1270)-Hgl-Sni-Phe-leu-Leu-Hyp-Nml-Asp-Arg-Ile-NH2; reading uncertain) [JAL-1805]	≤ 15 µM

Input [Occ][Sni][Phe(3-CF3)][leu]L[Hyp][NMeL]DRI-NH2 (reading uncertain; also: printed as Occ-Sni-Mtf-leu-Leu-Hyp-Nml-Asp-Arg-Ile-NH2) [JAL-1621] . Output EC50 group, cGMP in GTM-3 cells: ≤ 1 µM

Input Octanoyl-[dA]F[dR]L[Pro(trans-4-F)]LDRI-NH2 [JAL-1114] . Output EC50 group, cGMP in GTM-3 cells: ≤ 5 µM

Input Octanoyl-[Sni]X[leu]L[Hyp][NMeL]DRI-NH2 (not fully specified (some residues); printed as Occ-Sni-Pmf-leu-Leu-Hyp-Nml-Asp-Arg-Ile-NH2) [JAL-1494] . Output EC50 group, cGMP in GTM-3 cells: ≤ 1 µM

Input [Occ][Sni]F[leu]L[Hyp][NMeL][AR‑314‑145]RI-NH2 (reading uncertain; also: printed as Occ-Sni-Phe-leu-Leu-Hyp-Nml-(AR-314-145)-Arg-Ile-NH2) [JAL-1864] . Output EC50 group, cGMP in GTM-3 cells: ≤ 15 µM

Input Hexanoyl-[dA][dA]FGLKLDR[Chg]-NH2 [JAL-0718] . Output EC50 group, cGMP in GTM-3 cells: ≤ 15 µM

Input [Occ][dA]F[Ac3c]LPLDRI-NH2 [JAL-0945] . Output EC50 group, cGMP in GTM-3 cells: ≤ 15 µM

Input H-[Aoc(2)][Sni]FLL[Hyp][NMeL]DRI-NH2 (not fully specified (residue 4); printed as H-Hgl-Sni-Phe-leu-Leu-Hyp-Nml-Asp-Arg-Ile-NH2) [JAL-1896] . Output EC50 group, cGMP in GTM-3 cells: ≤ 5 µM

Input Octanoyl-[Sni]FLL[Hyp][NMeL][pS]RI-NH2 (not fully specified (some residues); printed as Occ-Sni-Phe-leu-Leu-Hyp-Nml-Pse-Arg-Ile-NH2) [JAL-1912] . Output EC50 group, cGMP in GTM-3 cells: ≤ 15 µM

Input [Occ][Sni]FLL[Hyp][NMeL]D[BB785][Che] (not fully specified (residue 4); printed as Occ-Sni-Phe-leu-Leu-Hyp-Nml-Asp-(BB785)-Che; reading uncertain) [JAL-1697] . Output EC50 group, cGMP in GTM-3 cells: ≤ 5 µM

Input XXFGLKLDRI (HELM PEPTIDE1{[CCCCCC(=O)[*:2]].[O=C(Cc1ccc(N[*:1])cc1)[*:2]].F.G.L.K.L.D.R.I.[am]}$$$$V2.0; SMILES CCCCCC(=O)Nc1ccc(CC(=O)N[C@@H](Cc2ccccc2)C(=O)NCC(=O)N[C@@H](CC(C)C)C(=O)N[C@@H](CCCCN)C(=O)N[C@@H](CC(C)C)C(=O)N[C@@H](CC(=O)O)C(=O)N[C@@H](CCCNC(=N)N)C(=O)N[C@H](C(N)=O)[C@@H](C)CC)cc1) [JAL-0650] . Output EC50 group, cGMP in GTM-3 cells: ≤ 15 µM

Input [2857‑Ac][Aoc(2)][Sni]FLL[Hyp][NMeL]DRI-NH2 (not fully specified (residue 5); printed as (2857-Ac)-Hgl-Sni-Phe-leu-Leu-Hyp-Nml-Asp-Arg-Ile-NH2) [JAL-1901] . Output EC50 group, cGMP in GTM-3 cells: ≤ 5 µM

Input [Occ][Sni]F[dL]L[Hyp][NMeL]D[Api][Che] (reading uncertain; also: printed as Occ-Sni-Phe-leu-Leu-Hyp-Nml-Asp-Apc-Che) [JAL-1672] . Output EC50 group, cGMP in GTM-3 cells: ≤ 15 µM

Input [Occ][Sni]F[Egg]L[Hyp][NMeL]DRI-NH2 [JAL-1890] . Output EC50 group, cGMP in GTM-3 cells: ≤ 1 µM

Input [Occ]AF[nle]LPLDRI-NH2 (not fully specified (residue 2); printed as Occ-ala-Phe-nle-Leu-Pro-Leu-Asp-Arg-Ile-NH2; reading uncertain) [JAL-1014] . Output EC50 group, cGMP in GTM-3 cells: ≤ 5 µM
